Data provenance is paper PMC8906099.

Listed here: items and their measured CC50 at 72 h.
Experiment: Cytotoxicity in infected C2C12 cells after 72 h
Format: cell-based, murine
Conditions: mouse, C2C12 cells infected with T. cruzi Brazil strain
Quantity Kind: CC50 at 72 h (µM)

>>> print(df.to_string())
                                   molecule  quantity_kind  comparison_sign  meas_value
0  COc1ccc(/C=C/C(=O)/C=C/c2ccc(OC)cc2)cc1 [DBA 2]   CC50 at 72 h                =        5.15
1  O=C(/C=C/c1ccccc1)/C=C/c1ccccc1 [DBA 1, (1E,4E)-1,5-diphenylpenta-1,4-dien-3-one]   CC50 at 72 h                =        7.32
2  COc1ccc(/C=C/C(=O)/C=C/c2ccc(OC)c(OC)c2)cc1OC [DBA 3]   CC50 at 72 h                =        1.73
3  O=C(Cn1ccnc1[N+](=O)[O-])NCc1ccccc1 [BZ, benznidazole, reference compound]   CC50 at 72 h                >          10
4  O=C(/C=C/c1ccc(Cl)cc1)/C=C/c1ccc(Cl)cc1 [DBA 5]   CC50 at 72 h                =        12.4
5  COc1cc(/C=C/C(=O)CC(=O)/C=C/c2ccc(O)c(OC)c2)ccc1O [CUR, reference compound]   CC50 at 72 h                =        2.36
6  COc1cc(OC)c(/C=C/C(=O)/C=C/c2c(OC)cc(OC)cc2OC)c(OC)c1 [DBA 4]   CC50 at 72 h                =        0.09
